biological target: T1, human claudin 18A2 (CLD18A2) (human); assay: flow cytometry, scFv_Fc on HEK293 cells stably transfected with human CLD18A2
T1 construct: also called CLD18.2; CLDN18A2
T1 sequence (chain, as listed by the source limits assumed): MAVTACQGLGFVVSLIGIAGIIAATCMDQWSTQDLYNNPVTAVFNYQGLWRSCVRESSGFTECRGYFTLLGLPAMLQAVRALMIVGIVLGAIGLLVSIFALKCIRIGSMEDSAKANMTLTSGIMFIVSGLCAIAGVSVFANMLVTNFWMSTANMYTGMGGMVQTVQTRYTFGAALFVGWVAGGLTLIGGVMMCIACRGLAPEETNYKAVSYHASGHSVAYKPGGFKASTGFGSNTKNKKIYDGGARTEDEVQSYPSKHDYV
Measured EC50, listed per entry for reference.
// unit must come after the numeric part

Examples from the recorded data:
>>> reported_value("2B1-N52D scFv_Fc fusion antibody (Fc fusion, not shown: human IgG1 Fc portion) scFv: QVQLQQSGAELARPGASVKMSCKASGYTFTSYTMHWVKQRPGQGLEWIGYIDPSSGYTNYNQKFKDKATLTADKSSSTAYMQLSSLTSEDSAVYYCARIYYGNSFAYWGQGTTVTVSSGGGGSGGGGSGGGGSDIVMTQSPSSLTVTAGEKVTMSCKSSQSLLNSGNQKNYLTWYQQKPGQPPKLLIYWASTRESGVPDRFTGSGSGTDFTLTISSVQAEDLAVYYCQNDYSYPLTFGAGTKLELKR")
"6.11 nM"
>>> reported_value("hu8E5-2I scFv fused to human IgG1 Fc portion (Fc fusion, also called mutant hu8E5-2I; not shown: human IgG1 Fc portion) scFv: QVQLQESGPGLIKPSQTLSLTCTVSGGSISSGYNWHWIRQPPGKGLEWIGYIHYTGSTNYNPALRSRVTISVDTSKNQFSLKLSSVTAADTAIYYCARIYNGNSFPYWGQGTTVTVSSGGGGSGGGGSGGGGSDIVMTQSPDSLAVSLGERATINCKSSQSLFNSGNQKNYLTWYQQKPGQPPKLLIYWASTRESGVPDRFSGSGSGTDFTLTISSLQAEDVAVYYCQNAYSFPYTFGGGTKLEIKR")
"9.22 nM"

Next binder, please.
[in] Entry hu2B1-S54A scFv fused to human IgG1 Fc portion (Fc fusion, also called humanized hu2B1-S54A; not shown: human IgG1 Fc portion) scFv: QVQLVQSGAEVKKPGASVKVSCKASGYTFTSYTMHWVRQAPGQGLEWMGYINPASGYTNYNQKFKDRVTMTRDTSTSTAYMELSSLRSEDTAVYYCARIYYGNSFAYWGQGTLVTVSSGGGGSGGGGSGGGGSDIVMTQSPDSLAVSLGERATINCKSSQSLLNSGNQKNYLTWYQQKPGQPPKLLIYWASTRESGVPDRFSGSGSGTDFTLTISSLQAEDVAVYYCQNDYSYPLTFGGGTKVEIKR has what EC50?
[out] 18.6 nM
